Measured LDH: Cytotoxicity assay: % Effect, listed per entry.
test system: HCT116 cells; assay: Lactate dehydrogenase (LDH) release assay; type: cell-based
assay-readout: LDH: Cytotoxicity assay: % Effect (%)

compound | assay-readout | value-unit | meas-value
CC(=O)N(C)CC(=O)N(C)CC(=O)N(C)CC(=O)N(C)CC(=O)N[C@@H](CC(C)C)C(=O)N[C@H](C(=O)N[C@@H](Cc1ccccc1)C(=O)N[C@]1(C)CCCCCCC=CCCC[C@@](C)(C(=O)N[C@@H](CO)C(=O)N[C@@H](C)C(=O)N[C@@H](C)C(N)=O)NC(=O)[C@H](CC2CCC2)NC(=O)[C@H](CCC(N)=O)NC(=O)[C@H](C)NC(=O)[C@H](Cc2c[nH]c3ccccc23)NC(=O)[C@H](Cc2ccc(O)cc2)NC(=O)[C@H](CCC(=O)O)NC1=O)[C@@H](C)O | LDH: Cytotoxicity assay: % Effect | % | 2.48
CC(=O)N[C@H](CC(C)C)C(=O)N[C@H](C(=O)N[C@@H](Cc1ccccc1)C(=O)NC(C)(C)C(=O)N[C@@H](CCC(=O)O)C(=O)N[C@@H](Cc1ccc(O)cc1)C(=O)N[C@@H](Cc1c[nH]c2ccccc12)C(=O)N[C@@H](CCC(N)=O)C(=O)N[C@@H](CC(C)C)C(=O)N[C@@H](CC1CCC1)C(=O)NC(C)(C)C(=O)N[C@@H](CO)C(=O)N[C@@H](C)C(=O)N[C@@H](C)C(N)=O)[C@@H](C)O | LDH: Cytotoxicity assay: % Effect | % | 4.125
CC(=O)N[C@@H](CCCNC(=N)N)C(=O)N[C@@H](CCCNC(=N)N)C(=O)NCCC(=O)N[C@@H](CC(C)C)C(=O)N[C@H](C(=O)N[C@@H](Cc1ccccc1)C(=O)N[C@]1(C)CCCCCCC=CCCC[C@@](C)(C(=O)N[C@@H](CO)C(=O)N[C@@H](C)C(=O)N[C@@H](C)C(N)=O)NC(=O)[C@H](CC2CCC2)NC(=O)[C@H](CCC(N)=O)NC(=O)[C@H](C)NC(=O)[C@H](Cc2c[nH]c3ccccc23)NC(=O)[C@H](Cc2ccc(O)cc2)NC(=O)[C@H](CCC(=O)O)NC1=O)[C@@H](C)O | LDH: Cytotoxicity assay: % Effect | % | 50.55
CC(=O)N[C@@H](CCCNC(=N)N)C(=O)N[C@@H](CCCNC(=N)N)C(=O)NCCC(=O)N[C@@H](CCCCN=[N+]=[N-])C(=O)N[C@@H](CC(C)C)C(=O)N[C@H](C(=O)N[C@@H](Cc1ccccc1)C(=O)N[C@]1(C)CCCCCCC=CCCC[C@@](C)(C(=O)N[C@@H](CO)C(=O)N[C@@H](C)C(=O)N[C@@H](C)C(N)=O)NC(=O)[C@H](CC2CCC2)NC(=O)[C@H](CCC(N)=O)NC(=O)[C@H](C)NC(=O)[C@H](Cc2c[nH]c3ccccc23)NC(=O)[C@H](Cc2ccc(O)cc2)NC(=O)[C@H](CCC(=O)O)NC1=O)[C@@H](C)O | LDH: Cytotoxicity assay: % Effect | % | 47.04
CC(=O)N[C@@H](CCCNC(=N)N)C(=O)NCCCCCC(=O)N[C@@H](CCCCN=[N+]=[N-])C(=O)N[C@@H](CC(C)C)C(=O)N[C@H](C(=O)N[C@@H](Cc1ccccc1)C(=O)N[C@]1(C)CCCCCCC=CCCC[C@@](C)(C(=O)N[C@@H](CO)C(=O)N[C@@H](C)C(=O)N[C@@H](C)C(N)=O)NC(=O)[C@H](CC2CCC2)NC(=O)[C@H](CCC(N)=O)NC(=O)[C@H](C)NC(=O)[C@H](Cc2c[nH]c3ccccc23)NC(=O)[C@H](Cc2ccc(O)cc2)NC(=O)[C@H](CCC(=O)O)NC1=O)[C@@H](C)O | LDH: Cytotoxicity assay: % Effect | % | 39.54
CC(=O)N[C@H](C(=O)N[C@@H](CO)C(=O)NC(C)(Cc1ccccc1)C(=O)N[C@@H]1CCCCCCC=CCCC[C@@H](C(N)=O)NC(=O)C(C)(CC(C)C)NC(=O)[C@H](CC(C)C)NC(=O)[C@H](C)NC(=O)[C@H](Cc2c[nH]c3ccccc23)NC(=O)[C@H](Cc2ccc(O)cc2)NC(=O)[C@H](CCC(=O)O)NC1=O)[C@@H](C)O (stereo partly drawn) | LDH: Cytotoxicity assay: % Effect | % | 10.77

----------
This listing pairs molecules with measured logD.
assay: Experimental LogD (partition coefficient); details: not stated, Partition Coeff LogD
assay-readout: logD

molecule | meas-value
CC(=O)N[C@@H](CC(C)C)C(=O)N[C@H](C(=O)N[C@@H](Cc1ccccc1)C(=O)N[C@]1(C)CCCCCCC=CCCC[C@@](C)(C(=O)N[C@@H](CO)C(=O)N[C@@H](C)C(=O)N[C@@H](C)C(N)=O)NC(=O)[C@H](CC2CCC2)NC(=O)[C@H](CC(C)C)NC(=O)[C@H](CCC(N)=O)NC(=O)[C@@H](Cc2c[nH]c3ccccc23)NC(=O)[C@H](Cc2ccc(O)cc2)NC(=O)[C@H](CCC(=O)O)NC1=O)[C@@H](C)O [MP-594] | 2.83
CC(=O)N[C@@H](CCCCN=[N+]=[N-])C(=O)NCCC(=O)N[C@@H](CC(C)C)C(=O)N[C@H](C(=O)N[C@@H](Cc1ccccc1)C(=O)N[C@]1(C)CCCCCCC=CCCC[C@@](C)(C(=O)N[C@@H](CO)C(=O)N[C@@H](C)C(=O)N[C@@H](CCC(=O)O)C(N)=O)NC(=O)[C@H](CC2CCC2)NC(=O)[C@H](CCC(N)=O)NC(=O)[C@H](C)NC(=O)[C@H](Cc2c[nH]c3ccccc23)NC(=O)[C@H](Cc2ccc(O)cc2)NC(=O)[C@H](CCC(=O)O)NC1=O)[C@@H](C)O [MP-524] | 2.1

----------
test: Experimental LogD (partition coefficient); settings: not stated, Partition Coeff LogD
Positions of bridges follow the written chain, without caps; N, C: chain ends. Non-standard residues stand in square brackets, D forms with d. Residues, ends and D or L forms follow the SMILES beside them. Lys(N3) = [N-]=[N+]=NCCCC[C@H](N)C(=O)O; R8 = C=CCCCCCC[C@@](C)(N)C(=O)O; Cba = N[C@@H](CC1CCC1)C(=O)O; S5 = C=CCCC[C@](C)(N)C(=O)O; βAla = NCCC(=O)O
Consider the following compounds and their measured logD readings.
assay-readout: logD

compound | meas-value
CC(=O)N[C@@H](CC(C)C)C(=O)N[C@H](C(=O)N[C@@H](Cc1ccccc1)C(=O)N[C@]1(C)CCCCCCC=CCCC[C@@](C)(C(=O)N[C@@H](CO)C(=O)N[C@@H](C)C(=O)N[C@@H](C)C(N)=O)NC(=O)[C@H](CC2CCC2)NC(=O)[C@H](Cc2c[nH]cn2)NC(=O)[C@H](CCC(N)=O)NC(=O)[C@H](Cc2c[nH]c3ccccc23)NC(=O)[C@H](Cc2ccc(O)cc2)NC(=O)[C@H](CCC(=O)O)NC1=O)[C@@H](C)O [MP-200, ATSP-7041 (L9H)] (Ac-LTF[R8]EYWQH[Cba][S5]SAA-NH2; staple 4-11) | 2.69
CC(=O)N[C@@H](CCCCN=[N+]=[N-])C(=O)NCCC(=O)N[C@@H](CC(C)C)C(=O)N[C@H](C(=O)N[C@@H](Cc1ccccc1)C(=O)N[C@]1(C)CCCCCCC=CCCC[C@@](C)(C(=O)N[C@@H](CO)C(=O)N(C)[C@@H](C)C(=O)N[C@@H](C)C(N)=O)NC(=O)[C@H](CC2CCC2)NC(=O)[C@H](CCC(N)=O)NC(=O)[C@H](C)NC(=O)[C@H](Cc2c[nH]c3ccccc23)NC(=O)[C@H](Cc2ccc(O)cc2)NC(=O)[C@H](CCC(=O)O)NC1=O)[C@@H](C)O | 2.67
CC(=O)N[C@@H](CCCCN=[N+]=[N-])C(=O)NCCC(=O)N[C@@H](CO)C(=O)N[C@H](C(=O)N[C@@H](Cc1ccccc1)C(=O)N[C@]1(C)CCCCCCC=CCCC[C@@](C)(C(=O)N[C@@H](CO)C(=O)N[C@@H](C)C(=O)N[C@@H](C)C(N)=O)NC(=O)[C@H](CC2CCC2)NC(=O)[C@H](CCC(N)=O)NC(=O)[C@H](CO)NC(=O)[C@H](Cc2c[nH]c3ccccc23)NC(=O)[C@H](Cc2ccc(O)cc2)NC(=O)[C@H](CO)NC1=O)[C@@H](C)O [MP-5493] (Ac-[Lys(N3)][βAla]STF[R8]SYWSQ[Cba][S5]SAA-NH2; staple 6-13) | 2.69
CC(=O)N[C@@H](CCCCN=[N+]=[N-])C(=O)NCCC(=O)NC(C)(C)C(=O)N[C@H](C(=O)N[C@@H](Cc1ccccc1)C(=O)N[C@]1(C)CCCCCCC=CCCC[C@@](C)(C(=O)N[C@@H](CO)C(=O)N[C@@H](C)C(=O)N[C@@H](C)C(N)=O)NC(=O)[C@H](CC2CCC2)NC(=O)[C@H](CCC(N)=O)NC(=O)[C@H](C)NC(=O)[C@H](Cc2c[nH]c3ccccc23)NC(=O)[C@H](Cc2ccc(O)cc2)NC(=O)[C@H](CCC(=O)O)NC1=O)[C@@H](C)O | 2.81

Data provenance: paper PMC10786919
